# ASSAY_TARGET: a4b7(G629S) (human) (UniProt P13612)
# Sequence (P13612 34-1032, chain 1 of 2): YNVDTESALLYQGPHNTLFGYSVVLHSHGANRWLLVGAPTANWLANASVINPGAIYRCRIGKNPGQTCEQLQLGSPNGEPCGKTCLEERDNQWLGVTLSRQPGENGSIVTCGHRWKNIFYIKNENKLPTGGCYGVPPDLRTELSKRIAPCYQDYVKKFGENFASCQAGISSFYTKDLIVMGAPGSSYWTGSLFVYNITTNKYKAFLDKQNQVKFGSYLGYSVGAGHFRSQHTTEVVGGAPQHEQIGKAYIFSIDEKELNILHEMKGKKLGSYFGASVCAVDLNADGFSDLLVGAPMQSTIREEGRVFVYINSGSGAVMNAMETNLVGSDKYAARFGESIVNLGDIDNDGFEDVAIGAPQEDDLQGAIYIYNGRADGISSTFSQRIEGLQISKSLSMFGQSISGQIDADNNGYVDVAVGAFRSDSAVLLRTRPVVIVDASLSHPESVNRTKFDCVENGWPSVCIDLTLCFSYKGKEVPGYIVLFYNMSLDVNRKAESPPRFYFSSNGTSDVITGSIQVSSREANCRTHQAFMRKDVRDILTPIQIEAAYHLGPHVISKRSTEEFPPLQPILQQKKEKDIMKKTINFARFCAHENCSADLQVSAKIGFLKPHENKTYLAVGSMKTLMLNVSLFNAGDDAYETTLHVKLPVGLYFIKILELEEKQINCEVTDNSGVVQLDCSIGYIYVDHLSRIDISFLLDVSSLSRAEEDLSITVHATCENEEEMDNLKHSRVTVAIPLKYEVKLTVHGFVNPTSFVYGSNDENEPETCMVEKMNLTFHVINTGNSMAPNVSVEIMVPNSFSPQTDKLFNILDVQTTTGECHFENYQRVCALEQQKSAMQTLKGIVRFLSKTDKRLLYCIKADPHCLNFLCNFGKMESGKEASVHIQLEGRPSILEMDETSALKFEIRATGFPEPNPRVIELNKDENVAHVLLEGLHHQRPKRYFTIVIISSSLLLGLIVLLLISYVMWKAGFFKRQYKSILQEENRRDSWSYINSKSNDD
# Sequence (P26010 20-798 G629S, chain 2 of 2, further chain): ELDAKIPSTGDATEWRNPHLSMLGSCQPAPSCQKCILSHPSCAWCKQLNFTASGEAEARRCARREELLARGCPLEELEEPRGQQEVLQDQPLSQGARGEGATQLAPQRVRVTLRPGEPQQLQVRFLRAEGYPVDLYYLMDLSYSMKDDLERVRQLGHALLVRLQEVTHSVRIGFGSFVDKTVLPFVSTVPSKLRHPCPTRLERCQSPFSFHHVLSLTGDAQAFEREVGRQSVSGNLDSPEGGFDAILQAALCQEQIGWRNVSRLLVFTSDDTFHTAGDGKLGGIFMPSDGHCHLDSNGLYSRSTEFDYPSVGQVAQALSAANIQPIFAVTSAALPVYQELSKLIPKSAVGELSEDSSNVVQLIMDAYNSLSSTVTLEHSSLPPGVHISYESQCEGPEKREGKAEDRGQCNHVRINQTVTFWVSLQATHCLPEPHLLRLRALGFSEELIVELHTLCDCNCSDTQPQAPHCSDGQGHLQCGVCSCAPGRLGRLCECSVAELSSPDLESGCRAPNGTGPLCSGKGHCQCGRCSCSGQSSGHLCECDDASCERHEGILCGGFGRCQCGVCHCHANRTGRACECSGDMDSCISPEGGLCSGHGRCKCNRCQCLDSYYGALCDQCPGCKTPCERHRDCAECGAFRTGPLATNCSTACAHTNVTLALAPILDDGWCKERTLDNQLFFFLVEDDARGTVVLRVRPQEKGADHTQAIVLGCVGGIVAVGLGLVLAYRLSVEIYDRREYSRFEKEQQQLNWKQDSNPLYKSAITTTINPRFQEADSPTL
# EXPERIMENT_DESCRIPTION: FACS on transfected 293 cells, 1 microG/ml, PE anti-human IgG
OBSERVED_PROPERTY: fluorescence staining intensity (geometric mean)
Answers are plain numbers.

Need fluorescence staining intensity (geometric mean) of 18A11 (antibody, V domains shown, Fully human monoclonal from XenoMouse (human IgG2 or IgG4); kappa light chain; also called 18A11K; 18A11H) VH: QVQLVQSGAEVKKPGASVKVSCKVSGYTLSDLSIHWVRQAPGKGLEWMGGFDPQDGETIYAQKFQGRVTMTEDTSTDTAYMELSSLKSEDTAVYYCATGSSSSWFDPWGQGTLVTVSS VL: DIQMTQSPSSVSASVGDRVTITCRASQGISSWLAWYQQKPGKAPKLLIYGASNLESGVPSRFSGSGSGTDFTLTISSLQPEDFANYYCQQANSFPWTFGQGTKVEIK , thanks. 63

Every entry's value here was drawn from patent US20100254975A1.
